Origin of values: ChEMBL document CHEMBL3596129

Target Or System: Quinolone resistance protein NorA (Staphylococcus aureus) (UniProt P0A0J7)
Sequence (whole entry): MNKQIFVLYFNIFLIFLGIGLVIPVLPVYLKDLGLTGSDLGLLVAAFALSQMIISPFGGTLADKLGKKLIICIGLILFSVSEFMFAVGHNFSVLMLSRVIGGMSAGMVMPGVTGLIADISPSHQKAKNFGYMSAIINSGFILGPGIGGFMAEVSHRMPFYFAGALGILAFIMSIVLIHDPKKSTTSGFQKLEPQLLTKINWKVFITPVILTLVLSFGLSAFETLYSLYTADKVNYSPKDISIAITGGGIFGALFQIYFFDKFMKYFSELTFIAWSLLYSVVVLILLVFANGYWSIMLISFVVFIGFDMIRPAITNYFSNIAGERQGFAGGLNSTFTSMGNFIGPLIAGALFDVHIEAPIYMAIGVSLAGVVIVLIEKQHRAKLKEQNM
Experimental Protocol: Inhibition of NorA overexpressed in Staphylococcus aureus SA1199B assessed as ciprofloxacin MIC at 25 uM after 24 hrs by broth checkerboard method (reference value: 8 ug/ml)
We begin with a simple list: items and their reported MIC.
Measurement Name: MIC (µg/mL)

{"columns": ["Smiles Str", "Assay Result"],
 "data": [
  ["C=CC(C)(C)c1cc2cc3c(cc2oc1=O)OC(C)(C)C=C3", 2],
  ["COc1c2ccoc2c(OCC=C(C)C)c2oc(=O)ccc12", 4],
  ["O=C(/C=C/C=C/c1ccc2c(c1)OCO2)N1CCCCC1", 4],
  ["COc1ccc2ccc(=O)oc2c1CC=C(C)C", 2],
  ["CC(C)=CCOc1c2occc2cc2ccc(=O)oc12", 4],
  ["COc1c(C(=O)/C=C(\\O)c2ccccc2)ccc2occc12", 4]
]}

----------
We begin with a simple list: items and their reported IC50.
Target Or System: ATP-dependent translocase ABCB1 (Homo sapiens, UniProt P08183)
Experimental Protocol: Inhibition of P-gp in human LS180 cells after 90 mins by rhodamine123 cell exclusion method

{"columns": ["Compound", "Unit", "IC50"],
 "data": [
  ["COc1c(C(=O)/C=C(\\O)c2ccccc2)ccc2occc12", "µM", 88],
  ["CC(=O)Oc1cc(OC(C)=O)c2ccc(=O)oc2c1CC=C(C)C", "µM", 44],
  ["C=CC(C)(C)c1cc2cc3c(cc2oc1=O)OC(C)(C)C=C3", "µM", 15],
  ["CC(C)=CCOc1c2occc2cc2ccc(=O)oc12", "µM", 28],
  ["COc1ccc2ccc(=O)oc2c1CC=C(C)C", "µM", 34],
  ["COc1c2ccoc2c(OCC=C(C)C)c2oc(=O)ccc12", "µM", 32],
  ["COc1cc(/C=C/C(=O)CC(=O)/C=C/c2ccc(O)c(OC)c2)ccc1O", "µM", 62],
  ["C/C=C(\\C)C(=O)OC1c2c(ccc3ccc(=O)oc23)OC(C)(C)C1OC(=O)/C(C)=C/C (stereo not drawn)", "µM", 16]
]}

----------
Target Or System: Quinolone resistance protein NorA (Staphylococcus aureus)
Experimental Protocol: Inhibition of NorA overexpressed in Staphylococcus aureus SA1199B assessed as decrease in ciprofloxacin MIC at 25 uM after 24 hrs by broth checkerboard method relative to control
Measurement Name: fold change (FC)

{"columns": ["Compound", "Assay Result"],
 "data": [
  ["COc1ccc2ccc(=O)oc2c1CC=C(C)C [OSTHOLE]", 4],
  ["COc1c(C(=O)/C=C(\\O)c2ccccc2)ccc2occc12 [PONGAMOL]", 2],
  ["O=C(/C=C/C=C/c1ccc2c(c1)OCO2)N1CCCCC1", 2],
  ["C=CC(C)(C)c1cc2cc3c(cc2oc1=O)OC(C)(C)C=C3", 4],
  ["COc1c2ccoc2c(OCC=C(C)C)c2oc(=O)ccc12 [PHELLOPTERIN]", 2],
  ["CC(=O)Oc1cc(OC(C)=O)c2ccc(=O)oc2c1CC=C(C)C", 2],
  ["CC(C)=CCc1c(O)cc(O)c2ccc(=O)oc12", 2],
  ["C/C=C(\\C)C(=O)OC1c2c(ccc3ccc(=O)oc23)OC(C)(C)C1OC(=O)/C(C)=C/C (stereo unspecified)", 2],
  ["COc1cc(/C=C/C(=O)CC(=O)/C=C/c2ccc(O)c(OC)c2)ccc1O [CURCUMIN]", 8],
  ["CC(C)=CCOc1c2occc2cc2ccc(=O)oc12 [PENTOSALEN]", 2],
  ["COc1ccc(-c2cc(=O)c3c(OC)c(OC)c(OC)c(OC)c3o2)cc1 [TANGERETIN]", 2]
]}
